experiment: NCI Yeast Anticancer Drug Screen. Data for the mlh1 rad18 strain (AID 175); details: S. cerevisiae mlh1 rad18 strain growth inhibition; at 50.0 µM (retest, dose inferred, filed as 5.0)
This is part of a sample that, as a whole, favours compounds with a hit. Of some 79,000 tested, about 15% had one in any assay. Activity calls are given as the source filed them. Cut-off read from the data, not from the text of the source: active = growth inhibition above about 70%; inactive = the rest.
Outcome (select one): active, inactive

{"columns": ["compound", "groupLabel"],
 "data": [
  ["COC(=O)C1c2c(C)cc3n2C(C=CC3)C1C(=O)OC (configuration not stated)", "inactive"]
]}

Asked: Short answer needed: outcome of this test for C[CH2][Sn]([F])([CH2]C)[CH2]C ?
Given back: active

Asked: Short answer needed: outcome of this test for ClCc1ccncc1 ?
Given back: inactive

* * *

Known growth inhibition of a selection of molecules
assay: NCI Yeast Anticancer Drug Screen. Data for the sgs1 mgt1 strain (AID 161);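 note: 0% = growth of cultures given vehicle only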; conditions: S. cerevisiae sgs1 mgt1 strain, at 50.0 µM, stronger effect = higher value
This is part of a sample that, as a whole, favours compounds with a hit. Of some 79,000 tested, about 15% had one in any assay.
Please state the figure in %; there is no need to write the unit.

Observe how each entry below is paired with its result.
{"columns": ["molecule", "valueKind", "observedValue"],
 "data": [
  ["Cc1cc(C)n(SC(Cl)(Cl)Cl)n1", "growth inhibition", -15.3],
  ["CC1(C)CC2(c3ccccc3)CC(c3ccccc3)C1C(C(=O)O)C2C(=O)O (stereo not given)", "growth inhibition", 99.2],
  ["CC(C)CCCC(C)C1CCC2C3CC=C4CC(OC(=O)CN5CC5)CCC4(C)C3CCC12C (stereo not given)", "growth inhibition", -4.85],
  ["COc1ccc(CCNC2CC3CCC2(C)C3(C)C)cc1OC (stereo not given)", "growth inhibition", 11.5],
  ["OC1C2CCCCN2C[C@@H](O)[C@H]1O (stereo not given in full)", "growth inhibition", 22.1],
  ["CC[C@@]1(O)C(=O)OCc2c1cc1n(c2=O)Cc2c-1nc1ccccc1c2Cl", "growth inhibition", 63.8],
  ["CC[As](CC)SC(CC[C@@H](C)C1CC[C@@]2(C)C3=C(CC[C@]12C)[C@@]1(C)CC[C@H](O)C(C)(C)[C@@H]1CC3)C(C)C (stereo not given in full)", "growth inhibition", -8.15],
  ["CCOP(=O)(OCC)/C(C#N)=C/c1ncc[nH]1", "growth inhibition", -48]
]}

Asked: Tell us which growth inhibition value is on record for CCN(CC)C(=S)[S-].CCN(CC)C(=S)[S-].O=C(O)CC([S-])C(=O)O.[Fe+3] (stereo not given)
Given back: 76.8

Asked: Tell us which growth inhibition value is on record for CCCCOCN(COCCCC)C(C)Cc1ccccc1 (stereo not given)
Given back: -12.5

* * *

Assay: NCI Yeast Anticancer Drug Screen. Data for the mlh1 rad18 strain (AID 175)
Conditions: S. cerevisiae mlh1 rad18 strain growth inhibition; at 50.0 µM
Description: Growth inhibition of yeast strains with defined genetic alterations is measured as a screen for potential anti-cancer activity. Selected strains with alterations in DNA damage repair or cell cycle control were exposed to compounds and growth inhibition was measured relative to vehicle treated controls. The strain used in this assay is mlh1 rad18
The panel holds about 79,000 compounds, 15% with a hit somewhere; the sample as a whole holds those more often. The source made the active and inactive calls. No stated cut-off is given here; in the data, active means growth inhibition above about 70%; inactive means the rest.
Outcome (select one): active, inactive

{"columns": ["compound", "groupLabel"],
 "data": [
  ["CCC1(O)CC(O)c2c(O)c3c(c(O)c2C1C(=O)OC)C(=O)c1cccc(O)c1C3=O (stereo not given)", "inactive"]
]}

Asked: Short answer needed: outcome of this test for Cc1ccc(S(=O)(=O)N=S(=O)(CCCl)CCCl)cc1 ?
Given back: active

Asked: Short answer needed: outcome of this test for N#C[S-].[La+3].c1ccc(-c2ccccn2)nc1.c1ccc(-c2ccccn2)nc1.c1ccc(-c2ccccn2)nc1 ?
Given back: active

Asked: Short answer needed: outcome of this test for C[CH2][Sn]([CH2]C)([O]C(=O)c1ccc(F)cc1)[O]C(=O)c1ccc(F)cc1 ?
Given back: inactive

Asked: Short answer needed: outcome of this test for COC1=C(OC)C23CCc4ccc(OC)c(O)c4C2(CCN3)CC1=O (stereo not given) ?
Given back: inactive

* * *

Assay: NCI Yeast Anticancer Drug Screen. Data for the rad50 strain (AID 155);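 note: 0% = growth of vehicle-only cultures of the same strain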
Conditions: S. cerevisiae rad50 strain growth inhibition; at 5.0 µM (retest, dose inferred, filed as 0.5); stronger effect = higher value
Method: Growth inhibition of yeast strains with defined genetic alterations is measured as a screen for potential anti-cancer activity. Selected strains with alterations in DNA damage repair or cell cycle control were exposed to compounds and growth inhibition was measured relative to vehicle treated controls. The strain used in this assay is rad50
About 79,000 compounds went through this panel and 15% of them were active in at least one assay; those are over-represented in the sample as a whole.
Known growth inhibition of a selection of compounds
Please state the figure in %; there is no need to write the unit.

Observe how each entry below is paired with its result.
{"columns": ["compound", "observedValue"],
 "data": [
  ["COc1cc(/C=C(/C)[N+](=O)[O-])c([N+](=O)[O-])cc1OC", 29],
  ["CN1CCN(c2ccc3nc(-c4ccc5nc(CCCc6ccc(N(CCCl)CCCl)cc6)[nH]c5c4)[nH]c3c2)CC1", 98],
  ["CCC[CH2][Sn]1([CH2]CCC)[O]CC(CN2CCOCC2)[O]1 (configuration not stated)", 27]
]}

Asked: Tell us which growth inhibition value is on record for CCCC1CC[N-]CC1.CCCC1CC[N-]CC1.N#C[S-].N#C[S-].[Cd]
Given back: 31

Asked: Tell us which growth inhibition value is on record for O=P(Oc1ccccc1)(Oc1ccccc1)Oc1ccccc1Cl
Given back: 5

Asked: Tell us which growth inhibition value is on record for NC(=O)/C=C/c1ccc([As]=O)cc1 (configuration not stated)
Given back: 1

Asked: Tell us which growth inhibition value is on record for [CH3][Sn]([CH3])([Br])[Br].c1ccc(-c2nnc(-c3ccccn3)nc2-c2ccccc2)cc1
Given back: -3

Asked: Tell us which growth inhibition value is on record for O=[N+]([O-])c1cccc([N+](=O)[O-])c1Cl
Given back: 58

* * *

assay: NCI Yeast Anticancer Drug Screen. Data for the sgs1 mgt1 strain (AID 161);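 note: 0% = growth of cultures given vehicle only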; details: S. cerevisiae sgs1 mgt1 strain, at 50.0 µM, stronger effect = higher value
Compounds without any hit were thinned out: in the full panel of roughly 79,000, 15% have a hit.
valueKind: growth inhibition (%)
Please state the figure in %; there is no need to write the unit.

Observe how each entry below is paired with its result.
{"columns": ["compound", "growth inhibition / %"],
 "data": [
  ["CS(=N)(=O)CCC(N)C(=O)O (stereo unspecified)", -3.9],
  ["CC(=O)[O-].O=C([CH-]C(=O)c1ccccc1)c1ccccc1.O=C([CH-]C(=O)c1ccccc1)c1ccccc1.[Dy+3]", 93.4]
]}

Asked: Tell us which growth inhibition value is on record for COC(=O)c1ccccc1NP(=O)(O)Oc1ccccc1 (tested in a mixture with another compound)
Given back: 11.5

Asked: Tell us which growth inhibition value is on record for CCCCSP(=S)(SCCCC)c1ccc(Cl)cc1
Given back: 13.8

Asked: Tell us which growth inhibition value is on record for Cc1c2ccccc2c(CNCCSCCCl)c2ccc3ccccc3c12
Given back: 98.4

Asked: Tell us which growth inhibition value is on record for COc1ccc2nc3ccccc3c(NCCCCN(C)CCCl)c2c1
Given back: 83.9

Asked: Tell us which growth inhibition value is on record for C[CH2][Sn]1([CH2]C)[O]C(=O)[O][Sn]([CH2]C)([CH2]C)[O]1
Given back: -30.2

Asked: Tell us which growth inhibition value is on record for Oc1c(Cl)c(Cl)cc(Cl)c1Cl
Given back: 61.1

Asked: Tell us which growth inhibition value is on record for COC1CC(OC2OC(CO)C(O)C(O)C2O)/C(=C\C#N)C(O)C1OC (stereo unspecified)
Given back: 1.8

Asked: Tell us which growth inhibition value is on record for CCN(CC)CCc1ccccn1
Given back: -7

Asked: Tell us which growth inhibition value is on record for COc1cc(/C=C(/C)[N+](=O)[O-])c([N+](=O)[O-])cc1OC
Given back: 71.7

* * *

test: NCI Yeast Anticancer Drug Screen. Data for the mlh1 rad18 strain (AID 175); conditions: S. cerevisiae mlh1 rad18 strain growth inhibition; at 50.0 µM; stronger effect = higher value
About 79,000 compounds went through this panel and 15% of them were active in at least one assay; those are over-represented in the sample as a whole. Calls of active or inactive are those of the source. No stated cut-off is given here; in the data, active means growth inhibition above about 70%; inactive means the rest.
valueKind: growth inhibition

Observe how each entry below is paired with its result.
{"columns": ["compound", "growth inhibition"],
 "data": [
  ["COc1ccc2c(c1O)C13CCN(C)C(C2)C1CCC(O)C3 (stereo unspecified)", "-20% (inactive)"],
  ["CCOC(=O)C1OC(C2(C)OC3(OC4(C=CC3O)OC(C(C)C(=O)C(C)C(O)C(C)CC(C)c3c(Cl)cc(C)c(O)c3C(=O)O)C(C)CC4C)C(C)C2OC)CC1O (stereo unspecified)", "5.75% (inactive)"],
  ["O=[N+]([O-])c1ccc(OCc2ccc(COc3ccc(S(=O)(=O)F)cc3)cc2)c(Cl)c1", "-7.5% (inactive)"],
  ["C1CC2OC2CC1C1CO1 (stereo unspecified)", "-17.9% (inactive)"]
]}

Asked: Tell us which growth inhibition value is on record for COC(=O)c1cccc(S(=O)(=O)F)c1
Given back: -28.4% (inactive)

Asked: Tell us which growth inhibition value is on record for O=[N+]([O-])c1cccc2cccc([N+](=O)[O-])c12
Given back: 11.3% (inactive)

Asked: Tell us which growth inhibition value is on record for CCCCCOP(=O)(OCCCCC)C(=O)Nc1ccc([N+](=O)[O-])cc1
Given back: 10.9% (inactive)

Asked: Tell us which growth inhibition value is on record for CN(C)P(=O)(N(C)C)N(C)C
Given back: 25.1% (inactive)

Asked: Tell us which growth inhibition value is on record for NCCN.NCCN.[Cl-].[O]=[Re]=[O]
Given back: -0.6% (inactive)

Asked: Tell us which growth inhibition value is on record for CC(=O)N1CCCN(C)/C1=N/[N+](=O)[O-]
Given back: -13.9% (inactive)

Asked: Tell us which growth inhibition value is on record for COc1ccc2c3c1OC1C(C)(O)C(O)CC4C(C2)N(C)CCC341 (stereo unspecified)
Given back: 14.1% (inactive)
